Test system: human peripheral blood mononuclear cells (hPBMC)
Test: human PBMC assay, Example 3 (oligo and PLGA added at the same time, 48 well plates)
Format: cell-based
Conditions: donor 28033; oligo 20 μg/ml, PLGA 250 μg/ml; 24 hours
property-name: IFN-γ
# number then unit; no other words

Kindly note the recorded IFN-γ for 5′-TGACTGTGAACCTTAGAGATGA-3′ (DNA, all phosphorothioate, methylation of C not given here) [ISS−, reference compound] , which is 3 pg/mL

###

Measured IFN-γ accompanies every entry in the list below.
System: human peripheral blood mononuclear cells (hPBMC)
Assay: human PBMC assay, Example 6
Type: cell-based
Details: donor 28076

// known answers, use as guide
# substance, IFN-γ
data = [
    ("5′-GCGTTT-3′ [Oligonucleotide 6-15]", "12 pg/mL"),
    ("5′-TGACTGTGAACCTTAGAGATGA-3′ (DNA, all phosphorothioate, methylation of C not given here) [ISS−, reference compound]", "15 pg/mL"),
    ("5′-ACGTTT-3′ [Oligonucleotide 6-13]", "225 pg/mL"),
]

Kindly note the recorded IFN-γ for 5′-TCGTTT-3′ [Oligonucleotide 6-2] , which is 18 pg/mL

Kindly note the recorded IFN-γ for 5′-CCGTTT-3′ [Oligonucleotide 6-14] , which is 12 pg/mL

Kindly note the recorded IFN-γ for 5′-TCGTCG-3′ [Oligonucleotide 6-12] , which is 13 pg/mL

Kindly note the recorded IFN-γ for 5′-TGACTGTGAACGTTCGAGATGA-3′ [ISS+, reference compound] , which is 76 pg/mL

###

Test system: human peripheral blood mononuclear cells (hPBMC)
Experiment: human PBMC assay, Example 6
Assay type: cell-based
Details: delivered as oligonucleotide/MC complex (cPLGA)
property-name: immunomodulatory activity

// known answers, use as guide
# substance, endpoint-value
records = [
    ("5′-TCGTCG-3′ [Oligonucleotide 6-12]", "highly active"),
    ("5′-ACGTTT-3′ [Oligonucleotide 6-13]", "inactive"),
    ("5′-GCGTTT-3′ [Oligonucleotide 6-15]", "inactive"),
    ("5′-TCGTTT-3′ [Oligonucleotide 6-2]", "highly active"),
]

Kindly note the recorded immunomodulatory activity for 5′-CCGTTT-3′ [Oligonucleotide 6-14] , which is inactive

Kindly note the recorded immunomodulatory activity for 5′-TCCGGA-3′ [Oligonucleotide 6-18, reference compound] , which is largely inactive

Kindly note the recorded immunomodulatory activity for 5′-GACGTT-3′ [Oligonucleotide 6-17, reference compound] , which is largely inactive

###

System: human peripheral blood mononuclear cells (hPBMC)
Assay: human PBMC assay, Example 5 (96 well plates, premixed)
Type: cell-based
Settings: delivered as IMO/MC complexes (cPLGA)

# substance, immunomodulatory activity
data = [
    ("5′-ATCGAT-3′ [Oligonucleotide 6-7]", "highly active"),
    ("5′-TCGTCG-3′ [Oligonucleotide 6-1]", "highly active"),
]

###

System: human peripheral blood mononuclear cells (hPBMC)
Assay: human PBMC assay, Example 6
Assay type: cell-based
Details: mean of donors 28075-28078
property-name: IFN-γ Mean (pg/mL)
All answers are understood in pg/mL, so give the number only.

// known answers, use as guide
# substance, unit-spec, endpoint-value
rows = [
    ("5′-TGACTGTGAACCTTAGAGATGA-3′ (DNA, all phosphorothioate, methylation of C not given here) [ISS−, reference compound]", "pg/mL", 15),
    ("5′-TCGTCG-3′ [Oligonucleotide 6-12]", "pg/mL", 13),
    ("5′-GCGTTT-3′ [Oligonucleotide 6-15]", "pg/mL", 13),
]

Now for a further substance.
Kindly note the recorded IFN-γ Mean for 5′-CCGTTT-3′ [Oligonucleotide 6-14] , which is 12
